Reference for the values: patent US20250129329A1

Test system: hepatoma organoids isolated from liver cancer tissue
assay_info: Effects of medium additives on proliferation of hepatoma organoids (Example 1)
Format: cell-based, human
condition_details: additive in basic medium at the final concentration; organoid diameters after 7 days compared with Basic Medium
observation_type: Level of promoting proliferation

Solved cases (4 shown):
- C[C@@H](N)[C@H]1CC[C@H](C(=O)Nc2ccncc2)CC1 [Compound Y27632]: +
- Oc1ccc(-c2nc(-c3ccncc3)c(-c3ccc(F)cc3)[nH]2)cc1 [SB202190]: −
- Cc1cccc(-c2nn(C(=S)Nc3ccccc3)cc2-c2ccnc3ccccc23)n1 [Compound A8301]: −
- CN1C(=O)C(c2c(F)cccc2F)N(C)c2nc(Nc3ccc(S(N)(=O)=O)cc3)ncc21 (centres unmarked) [Compound 1]: +

Q: Give the observed Level of promoting proliferation of Cc1c[nH]c(-c2cnc(NCCNc3ccc(C#N)cn3)nc2-c2ccc(Cl)cc2Cl)n1 [CHIR99021] for hepatoma organoids isolated from liver cancer tissue.
Result: −
